system: MS2 coat protein; experiment: apparent KD of MS2 coat protein; designed switch direction (-1 OFF switch, 1 ON switch): 1; higher = weaker reporter binding; conditions: Eterna round: R95; input ligand: microRNA oligo, concentration not stated

residue sequence	apparent KD of MS2 coat protein (nM)
AGUCCAGCCUGAGCUGGACAAAAGCAUGUACAUGAGGAUCACCCAUGUCAUGUACAAGUUUUUUGCUCGUCUUAAAA [Zipper 46 - 11] (puzzle: Sensor for hsa-mir-208a)	13
UUGAAGACGGACAAGGAUAUGUCAAAGGAAACAUGAGGAUCACCCAUGUGGAGAUUGGAGAAGAAACAGAAGGUGUACGGAGAGA [JR_SS2_Sub008] (puzzle: Same State 2)	13.6
AGCUAUCGCGUACGAUAGCUGAAGCAUGUACAUGAGGAUCACCCAUGUCAUGUACAAGCUUUUUGCUCGUCUUAUUG [JL-shm-2.26 JL mod] (puzzle: Sensor for hsa-mir-208a)	14.2
AGUCCAGCCUGAGCUGGACAAAAGCAUGUACAUGAGGAUCACCCAUGUCAUGUACAAGCUUUUUGCUCGUCUUGAUA [Zipper 49 - 8] (puzzle: Sensor for hsa-mir-208a)	16.7
AGUCCAGCAUGAGCUGGACAAAAGCAUGUACAUGAGGAUCACCCAUGUUCAUGUACAAGCUUUUUGCUCGUCAAAAG [Mat - hsa-mir-208a - Mod of JL - 70] (puzzle: Sensor for hsa-mir-208a)	19.6
AUAAAACAUGAGGAUCACCCAUGUCAACAAAGUCGAGGAUAUGGGCAAAUAAAAUAAGAACCAGAAGGCGAUUAAU [salish99_ss1_r3_035] (puzzle: Same State 1)	97.3
GCCCAUAGUAUAUGGGUACAAGCUUUUUAACAUGAGGAUCACCCAUGUACUCGUCUUAUGUGCAGUCCGUAGACUGC [JL-shm-2.17 Brourd mod] (puzzle: Sensor for hsa-mir-208a)	14
UUUAGUUGCGGGCAGGAUAUGUAUUAAUAUACAUGAGGAUCACCCAUGUGCGGGUAUAACACCCGACAGAAGGGCCAAUCGCGAC [Laonerce - 5] (puzzle: Same State 2)	302
UUUAGUUGCGCGCAGGAUAUGUAUUAAUAUACAUGAGGAUCACCCAUGUGAGAUCGAAUAGAUCUACAGAAGGGCGAAUCGCGAC [Laonerce - 26] (puzzle: Same State 2)	168
ACAAGCUUUUUAGGAAGUGAAGGGAGGGAACAUGAGGAUCACCCAUGUAAGUGGAAUGAAGAAGGAGCACGUCUUAU [JR_SHM208A_Sub097] (puzzle: Sensor for hsa-mir-208a)	26.6
